The reported measurements were obtained from paper PMC10609741.

In this section, each of the compounds is paired with its reported solubility.
test: Solubility of the ibuprofen derivative in water in the absence of β-CD (S0), UV 226 nm; assay type: physicochemical; conditions: water without β-CD, 25 °C, from calibration curves
Answer format: numeric, µg/mL implied, no suffix.

Please review the following examples before continuing.
compound	unitInfo	solubility
CC(C)Cc1ccc(C(C)C(=O)NN2C(=O)CSC2c2ccc(Cl)cc2)cc1 (stereo not shown)	µg/mL	9.21
CC(C)Cc1ccc(C(C)C(=O)NN2C(=O)CSC2c2ccc(C#N)cc2)cc1 (stereo not shown)	µg/mL	22.8
CC(C)Cc1ccc(C(C)C(=O)NN2C(=O)CSC2c2ccc([N+](=O)[O-])cc2)cc1 (stereo not shown)	µg/mL	15

Continue with the compound presented below.
# get_value(readout='solubility', item= CC(C)Cc1ccc(C(C)C(=O)NN2C(=O)CSC2c2ccc(N)cc2)cc1 (stereo not shown) )
38.1
